- System: BDF1 mice, P388 leukemia ip, median survival T/C
- assay_text: NCI In Vivo Anticancer Drug Screen. Data for tumor model P388 Leukemia (intraperitoneal) in B6D2F1 (BDF1) mice
- test_context: endpoint: median survival time; dose: 6.25 mg/kg/injection; schedule: Q04DX003 (ip); vehicle: saline with Tween-80; higher = longer survival
Inconclusive results and toxic doses are left out.
measured_attribute: T/C

INSERT INTO assay_data (compound, observed_value) VALUES
  ('C1CCCC(NC2=NCCO2)CC1', '100 % of control');

Then there is this compound:
Challenge: Param item = O=C1C(=C(C(F)(F)F)C(F)(F)F)C2CCC1C2 (stereo not given) ; retrieve measured T/C.
Response given: 110 % of control

---

- System: BDF1 mice, P388 leukemia ip, median survival T/C
- assay_text: NCI In Vivo Anticancer Drug Screen. Data for tumor model P388 Leukemia (intraperitoneal) in B6D2F1 (BDF1) mice
- test_context: endpoint: median survival time; dose: 200.0 mg/kg/injection; schedule: Q04DX002 (ip); vehicle: saline with Tween-80; higher = longer survival
- Protocol: The antitumor activity of compounds was measured in mice bearing transplantable tumors. Survival or tumor size were measured and the results are expressed as the measurement made in the treated group (T) divided by the measurement made in the vehicle treated control group (C). The tumor model used in this assay is P388 Leukemia (intraperitoneal) in B6D2F1 (BDF1) mice
Inconclusive results and toxic doses are left out.
measured_attribute: T/C

INSERT INTO assay_data (compound, observed_value) VALUES
  ('Cc1cnn(O)c(=NCCCl)n1', '99 % of control'),
  ('CCn1c2ccc(N)cc2c2c3[nH]c(=O)c4cccn4c3ccc21', '92 % of control'),
  ('CC(C)(C)[Si](C)(C)OC(=O)NCCCl', '109 % of control');

Challenge: Find the measured T/C: item CC(=O)CC(C)=O.CC(=O)CC(C)=O.CC(C)c1ncc[nH]1.O=N[O-].[Co] , target or system BDF1 mice, P388 leukemia ip, median survival T/C.
Response given: 107 % of control

Challenge: What measured T/C is associated with CC(C)(C)CSc1ccccc1SCC(C)(C)C on BDF1 mice, P388 leukemia ip, median survival T/C?
Response given: 93 % of control

Challenge: Return T/C measured with BDF1 mice, P388 leukemia ip, median survival T/C given this compound: Cc1oc(-c2ccccc2)nc1C(C)(O)c1ccccc1 (stereo unspecified)
Response given: 103 % of control

---

- Test system: BDF1 mice, P388 leukemia ip, median survival T/C
- assay_text: NCI In Vivo Anticancer Drug Screen. Data for tumor model P388 Leukemia (intraperitoneal) in B6D2F1 (BDF1) mice
- test_context: endpoint: median survival time; dose: 200.0 mg/kg/injection; schedule: Q01DX009 (ip); vehicle: water; higher = longer survival
Toxic doses and inconclusive results are not listed.
measured_attribute: T/C

Challenge: Query (compound): Cc1nc(N)cc(=O)[nH]1 ; field requested: T/C
Response given: 110 % of control

Challenge: # input compound: OCc1nccn1Cc1ccccc1 ; wanted: its T/C
Response given: 101 % of control

Challenge: Request the reported T/C associated with NC(Cc1nn[nH]n1)C(=O)O (centres undefined)
Response given: 94 % of control

Challenge: Item C=C(C(N)=O)c1cc(Cl)ccc1Cl has what recorded T/C?
Response given: 100 % of control

// data source = PubChem BioAssay AID328
